Experimental System: UniProtKB P51582
Sequence (P51582 whole entry): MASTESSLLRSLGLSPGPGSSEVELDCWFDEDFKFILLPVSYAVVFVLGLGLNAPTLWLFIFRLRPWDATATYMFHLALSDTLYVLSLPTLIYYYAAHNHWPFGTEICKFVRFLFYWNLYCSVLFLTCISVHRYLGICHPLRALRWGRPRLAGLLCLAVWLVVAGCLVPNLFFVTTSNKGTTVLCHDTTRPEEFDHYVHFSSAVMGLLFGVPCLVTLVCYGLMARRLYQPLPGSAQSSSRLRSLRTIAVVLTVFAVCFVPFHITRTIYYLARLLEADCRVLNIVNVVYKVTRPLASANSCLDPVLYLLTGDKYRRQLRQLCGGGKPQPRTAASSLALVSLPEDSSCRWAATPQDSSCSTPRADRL
Assay Overview: Agonist activity at human recombinant P2Y4 receptor expressed in human 1321N1 cells assessed as [3H]inositol phosphate production after 30 mins by scintillation proximity assay
Type: functional, cell-based
What pEC50 was measured for each of the following?
FYI, pEC50 means -log10 of a concentration in mol per litre.

Q: Query (compound): `CC(=O)N[C@H]1[C@@H](OP(=O)(O)OP(=O)(O)OP(=O)(O)OP(=O)(O)OC[C@H]2O[C@@H](n3ccc(=O)[nH]c3=O)[C@H](O)[C@@H]2O)O[C@H](CO)[C@@H](O)[C@@H]1O` ; field requested: pEC50
A: 6.04

Q: Value lookup for pEC50; key = `O=c1nc(NOCCCc2ccccc2)ccn1[C@@H]1O[C@H](COP(=O)(O)OP(=O)(O)OP(=O)(O)O)[C@@H](O)[C@H]1O`
A: 7.64

Q: So what's the measured pEC50 for this one? `CC(C)(C)ONc1ccn([C@@H]2O[C@H](COP(=O)(O)OP(=O)(O)OP(=O)(O)O)[C@@H](O)[C@H]2O)c(=O)n1`
A: 5.68
